Hello, the source for this data is paper PMC7367173, in case you need it.

Assayed system: T1, ProQ full-length (Escherichia coli, UniProt P45577 1-232)
T1 sequence: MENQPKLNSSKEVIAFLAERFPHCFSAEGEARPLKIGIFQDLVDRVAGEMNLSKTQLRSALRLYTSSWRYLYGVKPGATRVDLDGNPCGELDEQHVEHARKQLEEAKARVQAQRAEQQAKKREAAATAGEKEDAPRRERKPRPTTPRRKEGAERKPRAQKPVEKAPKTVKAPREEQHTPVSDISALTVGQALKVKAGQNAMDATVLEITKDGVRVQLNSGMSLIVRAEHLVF
Protocol summary: EMSA
Each record here notes measured Kd.

Observe how each entry below is paired with its result.
[
  {
    "Binder": "cspE-3' (structured_RNA) RNA: GUAAGAUACGUCAGCAAGAAUUCAAAACCCGCUUAAUCAGCGGGUUUUUUUU",
    "Kd": "13 nM"
  },
  {
    "Binder": "malM-3' (structured_RNA) RNA: GCUUUAUCAGCAGUGUAAAAGGCAAGGGGUAAUUACGCCCCACAGUGCUGAUUUUGCAACAACUGGUGCGUCUCCUGGCGCACCUUUUUUU",
    "Kd": "12 nM"
  },
  {
    "Binder": "hupA-5'-mut (structured_RNA) RNA: GCGAAAAAAAGUGGCUAUCGGUGCGUGUAUGCAGGAGAGUGCUAUUCUGGCAUUUCCGUCGCACUCGAUGCUUAGCAAGCGAUAAACACAUCGUAAGGAUAACUUACGUUUU",
    "Kd": "14 nM"
  }
]

Here is another binder to look at.
Kd recorded for this binder, lpp-5'-mut (structured_RNA) RNA: GCUACAUGGAGAUUAACUCAAUCUAGAGGGUAUUAAUAAUGAAAGCUACUAAACUGGUACUGGGCGCGGUAAUCCCGCGCCCUUUU , is 3 nM
